- system.under.test: rat nNOS (Rattus norvegicus (Rat), UniProt P29476)
- condition.set: Table 1; ratio of Ki values, murine iNOS/rat nNOS
Structures can show the parent of a compound that is named as a salt.
quantity.kind: Selectivity n/i
// return a plain number; no unit text

Cl.Cl.Nc1ccc2ccc(CCNCc3cccc(F)c3)cc2n1 [6 (Ex. 12)] :: 97
Cl.Cl.Nc1ccc2ccc(CCNCCc3ccc(Cl)cc3)cc2n1 [16 (Ex. 18)] :: 91
Cl.Cl.Nc1ccc2ccc(CCNCCc3ccc(F)cc3)cc2n1 [14 (Ex. 16)] :: 280

With those in mind, consider the next compound.
Query: # lookup: Selectivity n/i of Nc1ccc2ccc(CNCCCc3cccc(F)c3)cc2n1 [9 (Ex. 9), Dihydrochloride]
Result: 538

====

- system.under.test: rat nNOS (Rattus norvegicus (Rat), UniProt P29476)
Structures can show the parent of a compound that is named as a salt.
quantity.kind: Ki (µM)
Lab book: enter the figure in µM, no units written.

Query: # lookup: Ki of Nc1ccc2cc(CCNCCCc3cccc(F)c3)ccc2n1 [13 (Ex. 30), Dihydrochloride]
Result: 4.37

====

// reported Selectivity n/e per item
- system.under.test: rat nNOS (Rattus norvegicus (Rat))
- condition.set: Table 1; ratio of Ki values, bovine eNOS/rat nNOS
Counter-ions that a name gives are not always drawn.
// return a plain number; no unit text

Nc1ccc2ccc(CNCCCc3cccc(F)c3)cc2n1 [9 (Ex. 9), Dihydrochloride] :: 62
Cl.Cl.Nc1ccc2ccc(CNCCc3cccc(F)c3)cc2n1 [5 (Ex. 8)] :: 6.2
Cl.Cl.Nc1ccc2ccc(CCNCc3cccc(F)c3)cc2n1 [6 (Ex. 12)] :: 30

Query: # lookup: Selectivity n/e of Cl.Cl.Nc1ccc2ccc(CCNCCc3ccc(Cl)cc3)cc2n1 [16 (Ex. 18)]
Result: 47
